B1: Osa-1-4 twister ribozyme (parent)
chain: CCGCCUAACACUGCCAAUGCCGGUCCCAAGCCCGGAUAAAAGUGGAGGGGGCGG

Variants of: B1
experiment-description: self-cleavage, relative activity (ratio to wild type); higher = more cleavage; co-transcriptional
Would you mind labelling by self-cleavage? At or over 0.3 is True, under is False.

Enquiry: hey, is self-cleavage for this one >= 0.3? A29G C11U
Return: False

Enquiry: hey, is self-cleavage for this one >= 0.3? A36C C14A
Return: False

Enquiry: hey, is self-cleavage for this one >= 0.3? G19C G30A
Return: False

Enquiry: hey, is self-cleavage for this one >= 0.3? A10G G23U
Return: False

Enquiry: hey, is self-cleavage for this one >= 0.3? A28C G48C
Return: False

Enquiry: hey, is self-cleavage for this one >= 0.3? A8C U43C
Return: False
